# Test system: SARS-CoV-2
# TEST_SUMMARY: microbe, parasite or virus in culture
# Assay type: cell-based
# CONDITION_INFO: Severe acute respiratory syndrome coronavirus 2, VeroE6/TMPRSS2, 72 h, 50% SARS-CoV-2 infected cell death inhibitory concentration; VeroE6/TMPRSS2 cells, 3 days culture, CellTiter-Glo 2.0
Known EC50 of a selection of compounds

COMPOUND	SYSTEM_TESTED	EC50
Cn1cnc(Cn2c(=O)nc(Nc3cc4c(cc3Cl)OCC4)n(Cc3cc(F)c(F)c(F)c3)c2=O)n1 [Compound I-0482]	SARS-CoV-2	385 nM
COc1ccc(Nc2nc(=O)n(-c3cncc(C4CC4)c3)c(=O)n2Cc2cc(F)c(F)c(F)c2)cc1 [II-0272]	SARS-CoV-2	1590 nM
CCn1cc2cc(Nc3nc(=O)n(-c4cncc(C)c4)c(=O)n3Cc3cc(C#N)c(F)cc3C)ccc2n1 [II-0335]	SARS-CoV-2	241 nM
O=c1[nH]cccc1Cn1c(=O)nc(NCC2CCCC2)n(Cc2cc(F)c(F)c(F)c2)c1=O [II-0371]	SARS-CoV-2	13300 nM
CCn1cc2cc(Nc3nc(=O)n(-c4cncc(C)c4)c(=O)n3Cc3cc(C#N)ccc3C)c(Cl)cc2n1 [II-0493]	SARS-CoV-2	68 nM

Look at this compound and give its reported EC50. CCn1cc2cc(Nc3nc(=O)n(Cc4ncn(C)n4)c(=O)n3Cc3cc(F)c(F)cc3F)c(Cl)cc2n1 [II-0548]
533 nM

Look at this compound and give its reported EC50. COC(=O)c1cncc(-n2c(=O)nc(Nc3cc4cn(C)nc4cc3Cl)n(Cc3cc(F)c(F)c(F)c3)c2=O)c1 [II-0275]
7280 nM

----------
# SYSTEM_TESTED: SARS-CoV-2 3CL protease (Severe acute respiratory syndrome coronavirus 2, UniProt P0DTD1)
# TEST_SUMMARY: biochemical
# CONDITION_INFO: 50% SARS-CoV-2 3CL protease inhibitory concentration, given as class symbols; read-out: IC50
pIC50: −log10 of the molar value.
READOUT_TYPE: pIC50

Illustrative cases are given below, each with its answer.
COMPOUND	pIC50
Cc1cncc(-n2c(=O)nc(Nc3cc4cn(C)nc4cc3Cl)n(Cc3cccc(F)c3F)c2=O)c1 [II-0187]	> 7.00
Cc1cncc(-n2c(=O)nc(Nc3cc4cn(C(F)F)nc4cc3Cl)n(Cc3ccc(F)c(C#N)c3)c2=O)c1 [Compound I-0430]	> 7.00
Cc1cncc(-n2c(=O)nc(Nc3cc4cn(C)nc4cc3Cl)n(Cc3ccc(F)cc3Br)c2=O)c1 [II-0220]	> 7.00
COc1ccc(Nc2nc(=O)n(Cc3ccc[nH]c3=O)c(=O)n2Cc2cc(F)c(F)c(Cl)c2)cc1 [Compound I-0254]	> 7.00
O=c1[nH]cccc1Cn1c(=O)nc(Nc2cc3cn(CC4(O)CCC4)nc3cc2Cl)n(Cc2cc(F)c(F)c(F)c2)c1=O [Compound I-0423]	> 7.00

Look at this compound and give its reported pIC50. Cn1cnc(Cn2c(=O)nc(Nc3cc4cn(C)nc4cc3Cl)n(Cc3ccc(F)cc3F)c2=O)n1 [II-0202]
> 7.00

----------
# SYSTEM_TESTED: SARS-CoV-2 3CL protease (Severe acute respiratory syndrome coronavirus 2, UniProt P0DTD1)
# TEST_SUMMARY: biochemical
# CONDITION_INFO: IC50
READOUT_TYPE: IC50

COMPOUND	VALUE
COc1cc(OC)nc(NC23CC(Nc4nc(=O)n(CC5=CC=CNC5C)c(=O)n4Cc4cc(F)c(F)c(F)c4)(C2)C3)n1 (centres unmarked) [II-0626]	< 100 nM
CC(=O)NCCn1cc2cc(Nc3nc(=O)n(Cc4ccccn4)c(=O)n3Cc3cc(F)c(F)cc3F)c(Cl)cc2n1 [II-0248]	< 100 nM
CN(C)C(=O)Cn1cc2cc(Nc3nc(=O)n(Cc4ncn(C)n4)c(=O)n3Cc3cc(Cl)c(F)cc3F)c(Cl)cc2n1 [II-0276]	< 100 nM
CCNC(=O)Cn1cc2cc(Nc3nc(=O)n(Cc4ncn(C)n4)c(=O)n3Cc3cc(F)c(F)c(Cl)c3)c(Cl)cc2n1 [II-0150]	< 100 nM
Cn1cnc(Cn2c(=O)nc(Nc3cc4cn(CC(=O)O)nc4cc3Cl)n(Cc3cc(F)c(F)c(Cl)c3)c2=O)n1 [II-0321]	< 100 nM
O=c1[nH]cccc1Cn1c(=O)nc(NC23CC(Nc4ncccn4)(C2)C3)n(Cc2cc(F)c(F)c(F)c2)c1=O [II-0443]	< 100 nM
Cc1cncc(-n2c(=O)nc(Nc3cc(F)c(N=S4(=O)CCCC4)cc3Cl)n(Cc3cc(Cl)ccc3C)c2=O)c1 [II-0620]	< 100 nM
COc1ccc(Nc2nc(=O)n(Cc3cc(-c4cnn(C)c4)c[nH]c3=O)c(=O)n2Cc2cc(F)c(F)c(F)c2)cc1 [Compound I-0259]	< 100 nM

Field: IC50 (SARS-CoV-2 3CL protease (Severe acute respiratory syndrome coronavirus 2, UniProt P0DTD1)). Entry: Cn1cc2cc(Nc3nc(=O)n(Cc4c[nH]c(=O)[nH]c4=O)c(=O)n3Cc3cc(F)c(F)c(F)c3)c(Cl)cc2n1 [Compound I-0405]
< 100 nM

Field: IC50 (SARS-CoV-2 3CL protease (Severe acute respiratory syndrome coronavirus 2, UniProt P0DTD1)). Entry: Cc1cncc(-n2c(=O)nc(Nc3cc4cn(C)nc4cc3Cl)n(Cc3nc(Cl)c(Cl)n3C)c2=O)c1 [II-0021]
3600 nM

Field: IC50 (SARS-CoV-2 3CL protease (Severe acute respiratory syndrome coronavirus 2, UniProt P0DTD1)). Entry: COc1ccc(Nc2cc(=O)n(Cc3ccc[nH]c3=O)c(=O)n2Cc2cc(F)c(F)c(F)c2)cc1 [Compound I-0326]
65 nM

Field: IC50 (SARS-CoV-2 3CL protease (Severe acute respiratory syndrome coronavirus 2, UniProt P0DTD1)). Entry: COC(=O)NC12CC(Nc3nc(=O)n(Cc4ccc[nH]c4=O)c(=O)n3Cc3cc(F)c(F)c(F)c3)(C1)C2 [II-0062]
< 100 nM

Field: IC50 (SARS-CoV-2 3CL protease (Severe acute respiratory syndrome coronavirus 2, UniProt P0DTD1)). Entry: CNC(=O)Cn1c(=O)[nH]/c(=N\c2ccc(OC(F)F)cc2C)n(Cc2cc(F)c(F)c(F)c2)c1=O [II-0331]
1000 to 10000 nM

Field: IC50 (SARS-CoV-2 3CL protease (Severe acute respiratory syndrome coronavirus 2, UniProt P0DTD1)). Entry: Cn1nnc2cc(Cl)c(Nc3nc(=O)n(Cc4ccc[nH]c4=O)c(=O)n3Cc3cc(F)c(F)c(F)c3)cc21 [Compound I-0440]
< 100 nM
